- target or system: PIK3CB (Human)
- method description: Cell-Based Assay
- test conditions: mda-mb-468
pEC50: −log10 of the molar value.
measured quantity: pEC50

Cc1nn2c(C(=O)O)cc(N3CCOCC3)nc2c1Cc1cccc(C(F)(F)F)c1C
5.50
Cc1c(Cc2cnn3c(O)cc(N4CCOCC4)nc23)cccc1C(F)(F)F
5.50
Cc1nn2c(O)cc(N3CCOCC3)nc2c1Cc1cccc2ccccc12
5.40
Cc1nn2c(O)cc(N3CCOCC3)nc2c1Cc1cccc(C(F)(F)F)c1C
5.30
Cc1c(Cc2cnn3c(O)cc(-c4ccncc4)nc23)cccc1C(F)(F)F
4.80

I. Cc1nn2c(C(N)=O)cc(N3CCOCC3)nc2c1Cc1cccc(C(F)(F)F)c1C
II. Nc1nn2c(O)cc(C3CCOCC3)nc2c1Cc1cccc(Cl)c1Cl
// compare: I vs II , metric pEC50, want the smaller Could you answer with the label of the item you picked?
II

A. COc1nn2c(O)cc(-c3ccncc3)nc2c1Cc1cccc(Cl)c1Cl
B. Cc1nn2c(NC(N)=O)cc(N3CCOCC3)nc2c1Cc1cccc(C(F)(F)F)c1C
C. Cc1nn2c(O)cc(C3CCOCC3)nc2c1Cc1cccc(C(F)(F)F)c1C
Task for the reader: rank each entry by its pEC50, from the minimum upward. Give the order by naming the labels one after another as requested.
A, C, B
(A: 4.60, C: 4.80, B: 5.90)
